The measurements presented in this section are drawn from the supplement of paper PMC9233669.

# System: biotinyl-Ile-oxazolone
# experimentalDetails: self-aminoacylation, catalytic enhancement (BIO) (fold over background); higher = more active; k-Seq, kA / k0A0; sequences stand for … in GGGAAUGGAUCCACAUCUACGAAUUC…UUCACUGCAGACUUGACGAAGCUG
This sample holds only a part of the variants without activity.
Decide using self-aminoacylation: a value greater than or equal to 2 is rule met, a smaller one is rule not met.

{"residueString": "AAGUUUGCUAAUAGUCCCAAC [Fam3.1 aminoacylation ribozyme variant]", "systemName": "biotinyl-Ile-oxazolone", "classification": "rule not met"}
{"residueString": "AUUACCGUUGUCAUCGAGUGA [Fam2.1 aminoacylation ribozyme variant]", "systemName": "biotinyl-Ile-oxazolone", "classification": "rule met"}
{"residueString": "AUUCACCUGGGUCAUCUGGUG [Fam2.2 aminoacylation ribozyme variant]", "systemName": "biotinyl-Ile-oxazolone", "classification": "rule met"}

====

# Test system: biotinyl-Phe-oxazolone
# experimentalDetails: self-aminoacylation, catalytic enhancement (BFO) (fold over background); higher = more active; k-Seq, kA / k0A0; sequences stand for … in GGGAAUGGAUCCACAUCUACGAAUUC…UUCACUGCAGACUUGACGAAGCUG
Variants at the floor of the assay were thinned out.
Measured self-aminoacylation by item

{"residueString": "AAGUUUUCUAAUAGUCGCAAA [Fam3.1 aminoacylation ribozyme variant]", "systemName": "biotinyl-Phe-oxazolone", "self-aminoacylation": 3.41}
{"residueString": "AUUACCCUGGGCAUCGGGUGA [Fam2.1 aminoacylation ribozyme variant]", "systemName": "biotinyl-Phe-oxazolone", "self-aminoacylation": 65.7}
{"residueString": "AUUACCCUGGUUAUCGAGUGU [Fam2.1 aminoacylation ribozyme variant]", "systemName": "biotinyl-Phe-oxazolone", "self-aminoacylation": 3.12}

====

Measured self-aminoacylation by item
# Tested on: biotinyl-Ile-oxazolone
# experimentalDetails: self-aminoacylation, catalytic enhancement (BIO) (fold over background); higher = more active; k-Seq, kA / k0A0; sequences stand for … in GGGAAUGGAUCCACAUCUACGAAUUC…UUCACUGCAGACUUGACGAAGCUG
Fewer inactive variants are shown than the library holds.

{"residueString": "AAGUUUGCUAAUUGUCGCAUG [Fam3.1 aminoacylation ribozyme variant]", "self-aminoacylation": 0.982}
{"residueString": "AAGUUUGAUAAUAGACGCAAG [Fam3.1 aminoacylation ribozyme variant]", "self-aminoacylation": 0.364}
{"residueString": "AUUCACCGACGUCAUCGGGUG [Fam2.2 aminoacylation ribozyme variant]", "self-aminoacylation": 5.71}

====

Measured self-aminoacylation by item
# Tested on: biotinyl-Met-oxazolone
# experimentalDetails: self-aminoacylation, catalytic enhancement (BMO) (fold over background); higher = more active; k-Seq, kA / k0A0; sequences stand for … in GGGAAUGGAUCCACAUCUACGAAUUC…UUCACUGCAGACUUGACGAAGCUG
Fewer inactive variants are shown than the library holds.
assayEndpoint: self-aminoacylation

{"residueString": "AUUACUCUGGUCAUCGAGUGA [Fam2.1 aminoacylation ribozyme variant]", "assayEndpoint": "self-aminoacylation", "reportedResult": 6.63}
{"residueString": "AAGUUUGCCAAUAGUCGCGAG [Fam3.1 aminoacylation ribozyme variant]", "assayEndpoint": "self-aminoacylation", "reportedResult": 1.96}
{"residueString": "UUUACCCUGGGCAUCGAGUGA [Fam2.1 aminoacylation ribozyme variant]", "assayEndpoint": "self-aminoacylation", "reportedResult": 4.18}
{"residueString": "CUACUUCAAACAAACGGUUUG [Fam1A.1 aminoacylation ribozyme variant]", "assayEndpoint": "self-aminoacylation", "reportedResult": 0.719}
{"residueString": "CUAAUUCAAACAAUCGCUCUG [Fam1A.1 aminoacylation ribozyme variant]", "assayEndpoint": "self-aminoacylation", "reportedResult": 0.668}
{"residueString": "CCAUACUGCAAGCAAUCGGUC [Fam1B.1 aminoacylation ribozyme variant]", "assayEndpoint": "self-aminoacylation", "reportedResult": 1.15}
{"residueString": "AUUCACCUAGGUCCUCGGGUU [Fam2.2 aminoacylation ribozyme variant]", "assayEndpoint": "self-aminoacylation", "reportedResult": 2.22}
{"residueString": "GUUCACCUAGGUCAUCGGGCG [Fam2.2 aminoacylation ribozyme variant]", "assayEndpoint": "self-aminoacylation", "reportedResult": 4.01}
{"residueString": "CUGCUUCAAACAAGCGGUCUG [Fam1A.1 aminoacylation ribozyme variant]", "assayEndpoint": "self-aminoacylation", "reportedResult": 0.597}
{"residueString": "AUUACCCUUGGCAUCGAGUGA [Fam2.1 aminoacylation ribozyme variant]", "assayEndpoint": "self-aminoacylation", "reportedResult": 6}
{"residueString": "AAGUGUGCUGAUAGUCGCAAG [Fam3.1 aminoacylation ribozyme variant]", "assayEndpoint": "self-aminoacylation", "reportedResult": 1.74}
{"residueString": "AAGUUUGCUAAUAGUAGCAAC [Fam3.1 aminoacylation ribozyme variant]", "assayEndpoint": "self-aminoacylation", "reportedResult": 0.942}
{"residueString": "AUUCAUCUAGAUCAUCGGGUG [Fam2.2 aminoacylation ribozyme variant]", "assayEndpoint": "self-aminoacylation", "reportedResult": 2.68}
{"residueString": "AAGUUGGCUAAUAGUCGCACG [Fam3.1 aminoacylation ribozyme variant]", "assayEndpoint": "self-aminoacylation", "reportedResult": 1.61}
{"residueString": "AAGUUUCCUAAUACUCGCAAG [Fam3.1 aminoacylation ribozyme variant]", "assayEndpoint": "self-aminoacylation", "reportedResult": 1}
{"residueString": "GCACACUUCCAGCAAUCGGUC [Fam1B.1 aminoacylation ribozyme variant]", "assayEndpoint": "self-aminoacylation", "reportedResult": 1.55}
{"residueString": "AUUCACUUAGGUCAUCGUGUG [Fam2.2 aminoacylation ribozyme variant]", "assayEndpoint": "self-aminoacylation", "reportedResult": 0.802}
{"residueString": "CUACGUCAUACAAUCGGUCUG [Fam1A.1 aminoacylation ribozyme variant]", "assayEndpoint": "self-aminoacylation", "reportedResult": 1.1}
{"residueString": "AAGUUUCCUAAUAGUCGCGAG [Fam3.1 aminoacylation ribozyme variant]", "assayEndpoint": "self-aminoacylation", "reportedResult": 2.04}
{"residueString": "CCACACUUCUAUCAAUCGGUC [Fam1B.1 aminoacylation ribozyme variant]", "assayEndpoint": "self-aminoacylation", "reportedResult": 0.718}
{"residueString": "CUACUUCAAAAAAGCGGUCUG [Fam1A.1 aminoacylation ribozyme variant]", "assayEndpoint": "self-aminoacylation", "reportedResult": 1.02}
{"residueString": "AUUAGGCUGGUCAUCGAGUGA [Fam2.1 aminoacylation ribozyme variant]", "assayEndpoint": "self-aminoacylation", "reportedResult": 3.01}
{"residueString": "AAGUUUGCCAAUAUUCGCAAG [Fam3.1 aminoacylation ribozyme variant]", "assayEndpoint": "self-aminoacylation", "reportedResult": 1.35}
{"residueString": "ACUACCCUGGUCAUCGAGGGA [Fam2.1 aminoacylation ribozyme variant]", "assayEndpoint": "self-aminoacylation", "reportedResult": 3.62}
{"residueString": "CCACAUUUCAAGCAAUCAGUC [Fam1B.1 aminoacylation ribozyme variant]", "assayEndpoint": "self-aminoacylation", "reportedResult": 0.755}
{"residueString": "AUUACCCUGGUCAUCAACUGA [Fam2.1 aminoacylation ribozyme variant]", "assayEndpoint": "self-aminoacylation", "reportedResult": 0.667}
{"residueString": "CCACACUUCAAGCAAUCGGUG [Fam1B.1 aminoacylation ribozyme variant]", "assayEndpoint": "self-aminoacylation", "reportedResult": 5.19}
{"residueString": "AUUUCCCUGGUCAUCGGGUGA [Fam2.1 aminoacylation ribozyme variant]", "assayEndpoint": "self-aminoacylation", "reportedResult": 18.5}
{"residueString": "CCACACUUCAAGCAAUCCGGC [Fam1B.1 aminoacylation ribozyme variant]", "assayEndpoint": "self-aminoacylation", "reportedResult": 3.54}
{"residueString": "AUUCACCUGGGUCACCGGGUG [Fam2.2 aminoacylation ribozyme variant]", "assayEndpoint": "self-aminoacylation", "reportedResult": 4.54}
{"residueString": "AUUCACCUAGGUCAUGUGGUG [Fam2.2 aminoacylation ribozyme variant]", "assayEndpoint": "self-aminoacylation", "reportedResult": 2.95}
{"residueString": "AUUACGCAGGUCAUCGAGUGA [Fam2.1 aminoacylation ribozyme variant]", "assayEndpoint": "self-aminoacylation", "reportedResult": 3.04}
